Each entry below lists one item and its recorded RLU value.
- ASSAYED_TARGET: human TAS2R14 (Homo sapiens, UniProt Q9NYV8)
- Construct: expressed in transfected cells; host or cells: HEK293T-Gα16gust44
- Sequence (Q9NYV8 whole entry): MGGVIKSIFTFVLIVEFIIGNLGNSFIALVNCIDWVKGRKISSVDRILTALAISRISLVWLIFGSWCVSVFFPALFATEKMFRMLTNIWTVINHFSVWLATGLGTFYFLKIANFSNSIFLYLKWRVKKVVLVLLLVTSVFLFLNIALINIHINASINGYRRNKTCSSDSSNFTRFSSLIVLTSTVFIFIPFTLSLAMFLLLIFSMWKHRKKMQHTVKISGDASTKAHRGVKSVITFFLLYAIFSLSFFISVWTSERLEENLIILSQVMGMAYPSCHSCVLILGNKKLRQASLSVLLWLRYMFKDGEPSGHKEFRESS
- PROTOCOL_DESCRIPTION: Calcium imaging assay (FLIPR), HEK293T-Gα16gust44 cells transfected with human TAS2R14
- Assay type: cell-based
- TEST_PARAMETERS: TAS2R14 trace; Time (s) 90.797 (Chenodeoxycholic Acid 90.781)

- COMPOUND: "C[C@H](CCC(=O)O)[C@H]1CC[C@H]2[C@@H]3[C@H](O)C[C@@H]4C[C@H](O)CC[C@]4(C)[C@H]3CC[C@]12C [Chenodeoxycholic Acid, chenodeoxycholic acid]"
  RLU: "637.499 RLU"
- COMPOUND: "C[C@H](CCC(=O)O)[C@H]1CC[C@H]2[C@@H]3[C@H](O)C[C@@H]4C[C@H](O)CC[C@]4(C)[C@H]3C[C@H](O)[C@]12C [Cholic Acid, cholic acid]"
  RLU: "1092.31 RLU"
- COMPOUND: "C[C@H](CCC(=O)NCCS(=O)(=O)O)[C@H]1CC[C@H]2[C@@H]3CC[C@@H]4C[C@H](O)CC[C@]4(C)[C@H]3CC[C@]12C [Taurolithocholic Acid, taurolithocholic acid]"
  RLU: "303.944 RLU"
- COMPOUND: "C[C@H](CCC(=O)NCC(=O)O)[C@H]1CC[C@H]2[C@@H]3[C@H](O)C[C@@H]4C[C@H](O)CC[C@]4(C)[C@H]3C[C@H](O)[C@]12C [Glycocholic Acid, glycocholic acid]"
  RLU: "879.758 RLU"
- COMPOUND: "C[C@H](CCC(=O)NCCS(=O)(=O)O)[C@H]1CC[C@H]2[C@@H]3[C@H](O)C[C@@H]4C[C@H](O)CC[C@]4(C)[C@H]3C[C@H](O)[C@]12C [Taurocholic Acid, taurocholic acid]"
  RLU: "813.667 RLU"

* * *

- ASSAYED_TARGET: human TAS2R1 (Homo sapiens, UniProt Q9NYW7)
- Construct: expressed in transfected cells; host or cells: HEK293T-Gα16gust44
- Sequence (Q9NYW7 whole entry): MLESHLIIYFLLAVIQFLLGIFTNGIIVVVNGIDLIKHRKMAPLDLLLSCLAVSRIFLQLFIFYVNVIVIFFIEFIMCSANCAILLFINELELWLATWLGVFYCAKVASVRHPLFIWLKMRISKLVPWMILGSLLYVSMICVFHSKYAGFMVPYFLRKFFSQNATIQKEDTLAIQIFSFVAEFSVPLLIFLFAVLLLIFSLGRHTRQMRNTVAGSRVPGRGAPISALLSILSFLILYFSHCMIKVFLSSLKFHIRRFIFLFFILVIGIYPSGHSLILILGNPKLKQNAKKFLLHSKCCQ
- PROTOCOL_DESCRIPTION: Calcium imaging assay (FLIPR), HEK293T-Gα16gust44 cells transfected with human TAS2R1
- Assay type: cell-based
- TEST_PARAMETERS: Time 124.796 s
Each entry below lists one item and its recorded RLU value.

- CHEMICAL_SMILES: "C[C@H](CCC(=O)O)[C@H]1CC[C@H]2[C@@H]3[C@@H](O)C[C@@H]4C[C@H](O)CC[C@]4(C)[C@H]3CC[C@]12C"
  RLU: "301.938 RLU"
- CHEMICAL_SMILES: "C[C@H](CCC(=O)O)[C@H]1CC[C@H]2[C@@H]3[C@H](O)C[C@@H]4C[C@H](O)CC[C@]4(C)[C@H]3C[C@H](O)[C@]12C"
  RLU: "471.711 RLU"
- CHEMICAL_SMILES: "C[C@H](CCC(=O)O)[C@H]1CC[C@H]2[C@@H]3CC[C@@H]4C[C@H](O)CC[C@]4(C)[C@H]3CC[C@]12C"
  RLU: "851.498 RLU"
- CHEMICAL_SMILES: "C[C@H](CCC(=O)O)[C@H]1CC[C@H]2[C@@H]3[C@H](O)C[C@@H]4C[C@H](O)CC[C@]4(C)[C@H]3CC[C@]12C"
  RLU: "584.345 RLU"

Where do these numbers come from? They come from paper PMC10247784.
